Listed molecules paired with reported IC50
Molecular target: MLLT1 (Homo sapiens)
Sequence (Q03111 whole entry): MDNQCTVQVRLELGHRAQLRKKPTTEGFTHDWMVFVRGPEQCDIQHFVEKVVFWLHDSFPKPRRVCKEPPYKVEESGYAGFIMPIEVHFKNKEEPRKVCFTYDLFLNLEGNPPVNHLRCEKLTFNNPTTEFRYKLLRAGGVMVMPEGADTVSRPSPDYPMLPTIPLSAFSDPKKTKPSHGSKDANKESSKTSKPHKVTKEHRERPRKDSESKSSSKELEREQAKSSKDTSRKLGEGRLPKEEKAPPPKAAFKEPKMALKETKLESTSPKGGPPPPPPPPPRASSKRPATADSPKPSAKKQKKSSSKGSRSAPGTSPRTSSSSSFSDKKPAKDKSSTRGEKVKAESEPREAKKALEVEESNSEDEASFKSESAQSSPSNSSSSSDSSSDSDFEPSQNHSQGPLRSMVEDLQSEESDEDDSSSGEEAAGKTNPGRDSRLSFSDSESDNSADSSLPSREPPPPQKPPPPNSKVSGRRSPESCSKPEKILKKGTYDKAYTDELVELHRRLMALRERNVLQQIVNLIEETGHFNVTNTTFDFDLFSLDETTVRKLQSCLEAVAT
Test: biochemical
Conditions: MLLT1 assay IC50 (nM), HTRF, 6His tagged MLLT1, biotinylated H3K9cro peptide; compound 20 μM to 20 nM, 11 data points in duplicate

Study these solved cases before continuing.
CN1CCCC1c1cn2cc(NC(=O)c3ccc(-n4cccn4)nc3)ccc2n1 (racemic); 1500 to 20000 nM
CCN1CCCC1c1cn2cc(NC(=O)c3ccc4c(C)nn(C)c4c3)ncc2n1 (single isomer, unassigned) [Example 87]; 150 to 1500 nM
Cc1ncsc1-c1ccc(C(=O)Nc2ccc3nc(C4CCCN4C)cn3c2)c(F)c1 (single isomer, unassigned); 150 to 1500 nM
Cc1nn(C)c2sc(C(=O)Nc3ccc4nc(C5CCCN5C)cn4c3)cc12 (racemic); 1500 to 20000 nM

Sample `CN1CCC[C@@H]1c1cn2cc(NC(=O)c3ccc4c(N5CCCCC5)nn(C)c4c3)ncc2n1` — what was its IC50?
150 to 1500 nM

Looking for the measured IC50 of CN1CCCC1c1cn2cc(NC(=O)c3ccc(-c4ncon4)cc3)ccc2n1 (racemic) , can you help?
150 to 1500 nM

State the recorded IC50 for this entry: Cc1ncc(-c2ccc(C(=O)Nc3ccc4nc(C5CCCN5C)cn4c3)c(F)c2)s1 (single isomer, unassigned)
150 to 1500 nM

====

Reported values of IC50 for individual entries
Target: UniProt Q03111
Experiment: biochemical
Conditions: MLLT1 assay IC50 (nM), HTRF, 6His tagged MLLT1, biotinylated H3K9cro peptide; compound 20 μM to 20 nM, 11 data points in duplicate
Counter-ions that a name gives are not always drawn.

CN1CCCC1c1cn2cc(NC(=O)c3ccc4[nH]ccc4c3F)ccc2n1 (racemic) [Example 53]; 150 to 1500 nM
CN1CCC[C@@H]1c1cn2cc(NC(=O)c3ccc4nnn(C)c4c3)ncc2n1 [Example 97]; 150 to 1500 nM
CN1CCCC1c1cn2cc(NC(=O)c3ccc4c(c3)c(C3CCNC3)nn4C)ccc2n1 (racemic) [Example 56, formate]; 150 to 1500 nM

Fill in: IC50 of Cc1noc2cc(C(=O)Nc3ccc4nc(C5CCCN5C)cn4c3)ccc12 (racemic) [Example 29] is ___
1500 to 20000 nM

Data request, read-out IC50, for Cc1nn(C)c2cc(C(=O)Nc3cn4cc(C5CN(C)CCN5C)nc4cn3)ccc12 (single isomer, unassigned) [Example 67]
150 to 1500 nM

Sample CN1CCCC1c1cn2cc(NC(=O)c3cnc4cc(Cl)ccc4c3)ccc2n1 (racemic) [Example 9] — what was its IC50?
1500 to 20000 nM

Fill in: IC50 of CN1CCCC1c1cn2cc(NC(=O)c3ccc4cncnc4c3)ccc2n1 (racemic) [Example 47] is ___
150 to 1500 nM

Item under review: Cc1nc(-c2ccc(C(=O)Nc3ccc4nc(C5CCCN5C)cn4c3)cc2)cs1 (racemic) [Example 16] . Reported IC50?
150 to 1500 nM

====

Reported IC50 values for the following compounds.
Target: MLLT3 (Homo sapiens, UniProt P42568)
Sequence (P42568 whole entry): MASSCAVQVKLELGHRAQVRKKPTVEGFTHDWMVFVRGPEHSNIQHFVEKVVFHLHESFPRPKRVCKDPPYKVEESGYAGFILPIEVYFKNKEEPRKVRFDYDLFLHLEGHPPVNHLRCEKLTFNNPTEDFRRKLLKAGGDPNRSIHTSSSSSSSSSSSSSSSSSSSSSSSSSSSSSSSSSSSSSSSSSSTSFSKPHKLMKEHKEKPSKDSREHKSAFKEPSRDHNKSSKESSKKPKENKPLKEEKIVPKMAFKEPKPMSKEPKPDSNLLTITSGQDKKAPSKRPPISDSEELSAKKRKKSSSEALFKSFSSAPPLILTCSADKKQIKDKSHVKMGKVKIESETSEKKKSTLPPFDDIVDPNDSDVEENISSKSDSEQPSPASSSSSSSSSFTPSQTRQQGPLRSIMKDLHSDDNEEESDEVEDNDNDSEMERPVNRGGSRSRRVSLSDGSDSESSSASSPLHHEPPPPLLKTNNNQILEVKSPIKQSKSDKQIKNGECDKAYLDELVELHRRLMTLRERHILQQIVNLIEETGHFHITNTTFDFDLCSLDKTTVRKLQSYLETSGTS
Assay: HTRF IC50 determination assay, MLLT3 / H3K9cro peptide displacement
Details: MLLT3 assay IC50 (nM), 6His tagged MLLT3, biotinylated H3K9cro peptide, compound 20 μM to 20 nM, 11 data points in duplicate

# example entries with known answers
CN1CCC[C@@H]1c1cn2cc(NC(=O)c3ccc4c(cnn4C)c3)nc(C3CC3)c2n1 [Example 99]; 1500 to 20000 nM
CN1C[C@@H](F)C[C@@H]1c1cn2cc(NC(=O)c3ccc4c(cnn4C)c3)ncc2n1 [Example 83]; 150 to 1500 nM
CN1CCCC1c1cn2cc(NC(=O)c3ccn4ccnc4c3)ccc2n1 (racemic) [Example 32]; 1500 to 20000 nM

Please report the recorded IC50 for CN1CCCC1c1cn2cc(NC(=O)c3ccc(-c4cncs4)cc3F)ccc2n1 (single isomer, unassigned) [Example 7] .
1500 to 20000 nM

Item CN1CCCC1c1cn2cc(NC(=O)c3ccc4cncnc4c3)ccc2n1 (racemic) [Example 47] has what recorded IC50?
1500 to 20000 nM

// returns reported IC50 for input CN1CCOCC1c1cn2cc(NC(=O)c3ccc4c(cnn4C)c3)ccc2n1 (racemic) [Example 2]
1500 to 20000 nM

Endpoint output: IC50 of CN1CCCC1c1cn2cc(NC(=O)c3ccc4ncoc4c3)ccc2n1 (racemic) [Example 37] . Value?
1500 to 20000 nM

Bench note: what IC50 did CCC1CC(c2cn3cc(NC(=O)c4ccc5c(C)nn(C)c5c4)ncc3n2)N(C)C1 (single isomer, unassigned) [Example 80] show?
< 150 nM
